protocol: Clearance in Sprague-Dawley rat at 3 mg/kg, po and 0.5 mg/kg, iv measured upto 48 hrs by LC-MS/MS analysis
Assay type: ADME, organism-based
condition context: in vivo
value kind: clearance (mL/min/kg)

| smiles code | reading unit | reported |
| --- | --- | --- |
| Nc1cc(C(F)(F)F)c(Br)nc1C(=O)NC[C@@H](O)C(F)(F)F | mL/min/kg | 53 |

====

target system: Cystic fibrosis transmembrane conductance regulator (Homo sapiens, UniProt P13569, G551D)
Sequence (P13569 whole entry G551D): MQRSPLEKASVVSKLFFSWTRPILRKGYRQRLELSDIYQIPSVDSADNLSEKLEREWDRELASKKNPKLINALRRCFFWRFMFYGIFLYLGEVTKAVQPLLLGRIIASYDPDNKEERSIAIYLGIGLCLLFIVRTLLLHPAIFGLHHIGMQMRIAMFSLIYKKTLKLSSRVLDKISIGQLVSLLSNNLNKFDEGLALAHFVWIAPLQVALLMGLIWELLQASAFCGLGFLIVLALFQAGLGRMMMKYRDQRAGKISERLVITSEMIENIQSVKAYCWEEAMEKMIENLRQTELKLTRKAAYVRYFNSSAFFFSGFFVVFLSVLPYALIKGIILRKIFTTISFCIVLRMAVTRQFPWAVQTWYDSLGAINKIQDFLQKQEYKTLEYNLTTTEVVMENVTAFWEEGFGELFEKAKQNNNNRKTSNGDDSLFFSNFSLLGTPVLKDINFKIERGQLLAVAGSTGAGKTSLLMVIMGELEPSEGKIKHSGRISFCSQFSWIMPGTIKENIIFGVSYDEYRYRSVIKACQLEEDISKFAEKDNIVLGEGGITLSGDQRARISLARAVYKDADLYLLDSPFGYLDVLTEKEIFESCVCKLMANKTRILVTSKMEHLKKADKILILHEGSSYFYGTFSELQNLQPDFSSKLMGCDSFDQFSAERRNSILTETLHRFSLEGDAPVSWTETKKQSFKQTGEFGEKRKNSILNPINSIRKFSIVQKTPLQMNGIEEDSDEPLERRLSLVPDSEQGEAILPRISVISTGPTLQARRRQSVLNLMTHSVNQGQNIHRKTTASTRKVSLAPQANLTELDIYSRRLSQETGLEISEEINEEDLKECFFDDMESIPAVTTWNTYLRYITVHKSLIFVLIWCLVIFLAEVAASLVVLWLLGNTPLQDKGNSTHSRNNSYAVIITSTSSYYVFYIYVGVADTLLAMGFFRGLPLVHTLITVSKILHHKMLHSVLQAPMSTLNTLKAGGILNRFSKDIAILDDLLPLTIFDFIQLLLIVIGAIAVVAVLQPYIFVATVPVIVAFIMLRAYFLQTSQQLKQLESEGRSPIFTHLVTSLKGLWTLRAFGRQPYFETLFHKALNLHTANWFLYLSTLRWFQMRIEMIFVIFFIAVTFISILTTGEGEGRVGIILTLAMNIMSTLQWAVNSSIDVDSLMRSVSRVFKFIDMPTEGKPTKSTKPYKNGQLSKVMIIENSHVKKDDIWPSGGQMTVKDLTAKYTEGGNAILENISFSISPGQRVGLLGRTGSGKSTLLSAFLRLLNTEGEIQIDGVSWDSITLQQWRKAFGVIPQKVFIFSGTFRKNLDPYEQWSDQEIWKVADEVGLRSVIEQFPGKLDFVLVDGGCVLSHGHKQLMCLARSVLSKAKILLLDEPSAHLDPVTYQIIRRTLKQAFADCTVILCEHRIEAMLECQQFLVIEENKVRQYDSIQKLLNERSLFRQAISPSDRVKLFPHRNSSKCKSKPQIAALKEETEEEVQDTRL
protocol: Potentiation of CFTR G551D mutant (unknown origin) expressed in FRT cells assessed as chloride transport by measuring membrane potential in presence of forskolin
pEC50: −log10 of the molar value.
Recorded pEC50 values for a group of molecules are listed next.
value kind: pEC50

| smiles code | reported |
| --- | --- |
| CC(C)(C)c1cc(C(C)(C)C)c(NC(=O)c2c[nH]c3ccccc3c2=O)cc1O | 6.88 |
| C[C@](O)(CNC(=O)c1nc(Br)c(C(F)(F)F)cc1N)C(F)(F)F | 6.82 |
| COc1nc(C(=O)NC[C@](C)(O)C(F)(F)F)c(N)cc1C(F)(F)F | 6.30 |

====

Test system: Cystic fibrosis transmembrane conductance regulator (Homo sapiens), P13569 [F508del]
Sequence (P13569 as listed by the source): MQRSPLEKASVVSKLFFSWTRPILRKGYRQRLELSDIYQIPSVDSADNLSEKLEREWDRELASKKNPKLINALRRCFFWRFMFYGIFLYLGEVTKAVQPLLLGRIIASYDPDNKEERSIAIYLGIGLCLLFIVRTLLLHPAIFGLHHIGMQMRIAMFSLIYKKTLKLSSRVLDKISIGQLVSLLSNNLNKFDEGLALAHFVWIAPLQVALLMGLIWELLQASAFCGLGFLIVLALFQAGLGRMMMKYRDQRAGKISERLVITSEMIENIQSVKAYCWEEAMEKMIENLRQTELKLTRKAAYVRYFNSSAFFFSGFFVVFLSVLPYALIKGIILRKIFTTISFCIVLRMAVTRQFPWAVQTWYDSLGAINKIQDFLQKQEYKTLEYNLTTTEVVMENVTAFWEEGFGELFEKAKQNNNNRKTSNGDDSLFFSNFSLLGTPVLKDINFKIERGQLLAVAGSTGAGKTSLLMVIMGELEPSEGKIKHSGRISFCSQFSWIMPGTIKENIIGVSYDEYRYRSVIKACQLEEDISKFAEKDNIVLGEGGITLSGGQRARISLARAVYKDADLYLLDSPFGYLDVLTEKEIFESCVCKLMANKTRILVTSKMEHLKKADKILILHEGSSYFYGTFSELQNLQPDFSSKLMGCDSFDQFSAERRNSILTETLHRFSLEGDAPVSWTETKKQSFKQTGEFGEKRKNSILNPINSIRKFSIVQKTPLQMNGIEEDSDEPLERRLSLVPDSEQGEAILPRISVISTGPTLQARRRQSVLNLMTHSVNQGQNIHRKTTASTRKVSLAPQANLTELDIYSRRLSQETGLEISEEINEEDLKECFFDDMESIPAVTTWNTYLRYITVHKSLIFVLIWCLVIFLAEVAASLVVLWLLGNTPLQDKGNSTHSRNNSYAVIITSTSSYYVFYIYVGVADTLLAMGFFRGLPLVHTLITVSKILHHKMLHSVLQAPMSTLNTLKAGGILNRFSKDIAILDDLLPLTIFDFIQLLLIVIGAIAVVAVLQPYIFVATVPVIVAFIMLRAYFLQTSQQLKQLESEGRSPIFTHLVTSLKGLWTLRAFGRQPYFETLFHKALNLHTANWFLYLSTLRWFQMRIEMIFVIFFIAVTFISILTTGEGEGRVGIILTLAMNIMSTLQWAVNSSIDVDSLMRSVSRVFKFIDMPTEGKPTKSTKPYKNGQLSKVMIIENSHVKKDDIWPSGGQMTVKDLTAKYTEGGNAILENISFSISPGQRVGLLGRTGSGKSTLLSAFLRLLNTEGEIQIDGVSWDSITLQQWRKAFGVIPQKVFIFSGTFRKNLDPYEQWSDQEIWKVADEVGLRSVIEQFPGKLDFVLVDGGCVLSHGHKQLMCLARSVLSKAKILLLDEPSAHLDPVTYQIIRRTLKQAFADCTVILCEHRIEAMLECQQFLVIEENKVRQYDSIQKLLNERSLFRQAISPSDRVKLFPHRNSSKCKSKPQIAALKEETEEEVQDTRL
protocol: Potentiation of CFTR F508del mutant (unknown origin) expressed in CHO cells assessed as chloride transport by measuring membrane potential incubated for 5 to 30 mins in presence of forskolin by Quattro assay relative to PG-01
Type: cell-based
Design: concentration or dose not given beside the values
condition context: filed as activator, time 5-30 min
Recorded Activity values for a group of molecules are listed next.

| molecule | reading unit | Activity |
| --- | --- | --- |
| COC(=O)c1ccc(C(F)(F)F)cc1N | % | 72 |
| CCc1nc(C(=O)NCC(C)(O)C(F)(F)F)c(N)cc1C(F)(F)F (stereo in doubt; 28b) | % | 101 |
| CCOc1nc(C(=O)NC[C@](C)(O)C(F)(F)F)c(N)cc1C(F)(F)F | % | 116 |
| CNC(=O)c1cc(-c2ccco2)c(C(F)(F)F)cc1N | % | 83 |
| CC(O)CNC(=O)c1nc(Br)c(C(F)(F)F)cc1N (racemic) | % | 79 |
| CCc1nc(C(=O)NCC(C)(O)C(F)(F)F)c(N)cc1C(F)(F)F (stereo in doubt; 28a) | % | 100 |
| COc1nc(C(=O)NC[C@](C)(O)C(F)(F)F)c(N)cc1C(F)(F)F | % | 96 |
| COC(=O)c1cc(-c2ncco2)c(C(F)(F)F)cc1N | % | 92 |
| Nc1cc(C(F)(F)F)c(Br)nc1C(=O)NCC(O)(C(F)(F)F)C(F)(F)F | % | 117 |
| Nc1cc(C(F)(F)F)c(Br)nc1C(=O)NCCC(F)(F)F | % | 132 |

====

target system: Cystic fibrosis transmembrane conductance regulator (Homo sapiens, UniProt P13569, F508DEL)
Sequence (P13569 as listed by the source): as above
protocol: Potentiation of CFTR F508del mutant (unknown origin) expressed in CHO cells assessed as chloride transport by measuring membrane potential incubated for 5 to 30 mins in presence of forskolin by Quattro assay
Type: cell-based
pEC50: −log10 of the molar value.
Mark rule met for reported pEC50 of 7 or greater; mark rule not met for anything smaller.

| compound | label |
| --- | --- |
| C[C@](O)(CNC(=O)c1nc(C(F)(F)F)c(C(F)(F)F)cc1N)C(F)(F)F | rule met |
| Nc1cc(C(F)(F)F)c(Br)nc1C(=O)NCC(O)(C(F)(F)F)C(F)(F)F | rule met |
| COC(=O)c1cc(-c2cccnc2)c(C(F)(F)F)cc1N | rule not met |
| CNc1nc(C(=O)NCC(C)(O)C(F)(F)F)c(N)cc1C(F)(F)F (stereo in doubt; 30a) | rule not met |
| CNC(=O)c1nc(Br)c(C(F)(F)F)cc1N | rule not met |
| CC(C)c1ccc(NC(=O)C(c2ccccc2)N(C)C(=O)Cc2c[nH]c3ccccc23)cc1 (configuration not stated) | rule not met |
